Tested on: HMLE_sh_eGFP viability, CellTiter-Glo luminescence, 72 h
Experiment: cytotoxicity in HMLE control line with eGFP shRNA, dose response, counter-screen for HMLE_sh_ECad selective toxicity project, cell-based, HMLE_sh_eGFP, luminescence (AID 463074);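 further: counterscreen control line to flag general toxicity for the HMLE_sh_ECad screen; potency for loss of viability as luminescence drops below DMSO wells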;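 active means AC50 no more than tenfold above the top dose tested, or full inhibition at every dose with a flat fit (cut at about 19 µM in these data); inconclusive means flat curve fit with inhibition between 30% and 70%, or poor fit; inactive means AC50 more than tenfold above the top dose tested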
Bench note: report the call from active, inactive

Status in this test for `COc1cccc(C(=O)/C=C/c2ccc(N3CCCCC3)c([N+](=O)[O-])c2)c1` ?
active

Here is the next compound: `O=C(/C=C/c1ccc2c(c1)OCO2)c1c(O)n(CCC2=CCCCC2)c(=O)[nH]c1=O`
active

Here is the next compound: `CCOC(=O)c1cccc(C2=CC(=O)C[C@H](c3ccc(Cl)cc3)C2)c1`
active

Here is the next compound: `S=C(Nc1ccc(Oc2ccccc2)cc1)NC1CCCCCC1`
active

Here is the next compound: `Cn1cncc1C#Cc1c(-c2ccsc2)sc2ccccc12`
active

Here is the next compound: `COc1ccc2c(c1)-c1nc(NC(=O)c3cccs3)sc1CC2`
active

Here is the next compound: `Cc1nc(NCc2ccco2)c2c(C)c(C)sc2n1`
active

Here is the next compound: `CCc1ccc(NC(=O)c2cc3c(C)nc4ccccc4c3o2)cc1`
active

Here is the next compound: `Cc1ccc(N=Nc2ccc(O)cc2)c(Br)c1`
active

Here is the next compound: `C[C@H]1CCC/C=C/[C@@H]2C[C@H](O)C[C@H]2[C@H](O)/C=C/C(=O)O1`
active

Could you now look at the following compound, please?
Status in this test for `Cc1ccc(NC(=S)N/N=C/c2c(Cl)cccc2Cl)c(C)c1` ?
active

Data origin: PubChem BioAssay AID463074
